experiment: VALA_TUBHUV_Agonist_CellCount: Viability Assessment in the VALA Sciences human Umbilical Vein Endothelial Tubule Formation (TUBHUV) Agonism Assay (AID 2284309)
Records with an inconclusive call do not appear. Active and inactive are the calls of the source. The calls were made as follows: active = hit-call score of the fitted dose curve at least 0.9, where 1 is the maximum; inconclusive = response in the unintended direction; inactive = score below 0.9.
Respond with a class label; see t for active, f for inactive

compound	assignedLabel
COC(=O)c1ccc(O)cc1	f

Prompt: Check the results log: what was the call for OC[C@@H](O)[C@@H](O)[C@H](O)[C@H](O)CO ?
Response: f

Prompt: Check the results log: what was the call for CCCCC(CC)COC(=O)CC(C(=O)OCC(CC)CCCC)S(=O)(=O)O (stereo unspecified) ?
Response: t

Prompt: Check the results log: what was the call for CCCc1cc(=O)[nH]c(=S)[nH]1 ?
Response: f

Prompt: Check the results log: what was the call for Oc1ccc2ccccc2c1N=Nc1ccccc1 ?
Response: f

Prompt: Check the results log: what was the call for O=c1c(O)c(-c2ccc(O)c(O)c2)oc2cc(O)cc(O)c12 ?
Response: f

----------
assay: ATG_NFI_CIS: Attagene CIS-FACTORIAL HepG2 Assay for human Nuclear Factor I (NFI) (AID 2282989); conditions: HepG2 cis-regulatory reporter, NFI response element transcription; actives raise or lower the signal
Active and inactive are the calls of the source. The calls were made as follows: active = hit-call score of the fitted dose curve at least 0.9, where 1 is the maximum; inactive = score below 0.9.
Respond with a class label; see 1 (yes) for active, 0 (no) for inactive

molecule	assignedLabel
CC(=O)C(C)=CC1C(C)=CCCC1(C)C (stereo not drawn)	0 (no)

Prompt: Check the results log: what was the call for COc1ccc2c(c1)c(CC(=O)O)c(C)n2C(=O)c1ccc(Cl)cc1 ?
Response: 0 (no)

Prompt: Check the results log: what was the call for Cc1nc(-c2ccc3c(c2)CCN(CCC2CCC(NC(=O)/C=C/c4ccc(F)cc4)CC2)CC3)no1 (stereo not drawn) ?
Response: 0 (no)

Prompt: Check the results log: what was the call for Oc1ccc2c(c1)OC[C@@H](N1CCC(O)(c3ccc(F)cc3)CC1)[C@H]2O ?
Response: 0 (no)

Prompt: Check the results log: what was the call for CCNc1cccc(C)c1 ?
Response: 0 (no)

Prompt: Check the results log: what was the call for C=CCOC(=O)c1ccccc1C(=O)OCC=C ?
Response: 0 (no)

Prompt: Check the results log: what was the call for CCc1c(C(=O)NN2CCCCC2)nn(-c2ccc(Cl)cc2Cl)c1-c1ccc(Br)cc1 ?
Response: 0 (no)

Prompt: Check the results log: what was the call for CCOc1ccc2c(c1)C(C)=CC(C)(C)N2 ?
Response: 1 (yes)

Prompt: Check the results log: what was the call for CCCCCCCCCCO ?
Response: 0 (no)

Prompt: Check the results log: what was the call for CCCCCCC(=O)OCC ?
Response: 0 (no)

Prompt: Check the results log: what was the call for CNCc1cc(F)ccc1Oc1ccc(Cl)c(Cl)c1 ?
Response: 0 (no)

Prompt: Check the results log: what was the call for Oc1ccc2ccccc2c1N=Nc1ccccc1 ?
Response: 0 (no)

Prompt: Check the results log: what was the call for CCOC(=O)C(C)(C)Oc1ccc(Cl)cc1 ?
Response: 0 (no)

----------
read-out: Interleukin-1 alpha (IL1a), IL1A (gene 3552); assay: BSK_KF3CT_IL1a: BioMAP Diversity Plus: KF3CT Assay for Interleukin-1 alpha (IL1a) Biomarker Activity (AID 2283070); details: primary human keratinocytes with fibroblasts; actives raise or lower the signal
The source made the active and inactive calls. Rule for the calls: active = hit-call score of the fitted dose curve at least 0.9, where 1 is the maximum; inactive = score below 0.9.
readoutType: outcome

chemicalString	valueReported
COc1cc(C=O)ccc1O	inactive
Cc1cc(NC(=O)C(=O)O)cc(C)c1Oc1ccc(O)c2c1CCC2	inactive
COc1ccc2c(c1)c(CC(=O)O)c(C)n2C(=O)c1ccc(Cl)cc1	inactive

Source: PubChem BioAssay (EPA / NIEHS)
